- Tested on: RPMI-8226 leukemia
- experiment: NCI-60 one-dose screen, 48 h
- test_context: 10 µM unless noted
- Procedure: Growth inhibition of the RPMI-8226 human tumor cell line is measured as a screen for anti-cancer activity. Cells are grown in 96 well plates and exposed to the test compound for 48 hours. Compounds are tested at a single concentration, which is 10^-5 M for most compounds. The reported endpoint is percent growth (GI% or GIPRCNT), where numbers from 0 - 100% represent growth inhibition, and numbers from -100% - 0 represent cell death. For example, a value of 40 represents 60% growth inhibition. […]
Compounds without any hit were thinned out: in the full panel of roughly 83,000, 20% have a hit. The source made the active and inactive calls. How the source made its calls: active means growth percent below 10; inactive means the rest.
Give one outcome, nothing more. List: yes (1) = active, no (0) = inactive

Inquiry: I'd appreciate the recorded outcome for N#Cc1cnc2ccc(-c3cnc(N)nc3)cc2c1N1CCc2cc(F)c(Cl)cc21 from this test.
Reply text: yes (1)

Inquiry: Hi, sorry to bother you, what did the test record for CCOC(=O)C1=NNC(c2ccc(Cl)cc2)C1C(=O)N1C(=S)NC(=O)C1CC(C)C (configuration not stated) ?
Reply text: no (0)

Inquiry: // return assay outcome for CCOC(=O)c1c(Nc2ccccc2)nn2c(-c3ccccc3)ccnc12
Reply text: no (0)

Inquiry: Write down the call the test reported for this molecule. Item: CCOc1ccccc1NC1=C(Cl)C(=O)c2nc(C)ccc2C1=O
Reply text: yes (1)

Inquiry: // return assay outcome for CC1(C)[C@@H](O)CC[C@]2(C)[C@H]3CC[C@@H]4[C@H]5[C@H](C(=O)/C=C\c6ccncc6)CC[C@]5(O)CC[C@@]4(C)[C@]3(C)CC[C@@H]12
Reply text: no (0)

Inquiry: Called result for NC(N)=Nc1ccc(Nc2cccc(Oc3ccc(Cl)c(C(F)(F)F)c3)c2)cn1
Reply text: yes (1)

Inquiry: Recorded test call requested for NS(=O)(=O)c1ccc(-n2cc(CN3CCCCC3)nn2)cc1
Reply text: no (0)

Inquiry: Record request — test call for Cc1ccc(C2=NN(C)C(=O)C3(CCCC3)C2)cc1
Reply text: no (0)

Inquiry: Assay result, entry CCn1c(SCC(=O)Nc2cccc(C(=O)/C=C/c3ccccc3Cl)c2)nc2ccccc2c1=O — outcome?
Reply text: yes (1)

Inquiry: Tell me the assay call for CCNC(=O)N1CCc2cc(OC)c(OCCc3ccc(OC)nc3)cc2C1c1ccc(C)cc1C (configuration not stated) please.
Reply text: yes (1)

Inquiry: What was the test verdict on Nc1ncc(-c2ccc(NS(=O)(=O)c3ccc(Cl)c(Cl)c3)cc2)[nH]1 ?
Reply text: no (0)

Inquiry: Lab log entry: COc1cc(OC)c(/C=C/S(=O)(=O)Cc2ccc(OC)c(NC(=O)CCC(=O)NO)c2)c(OC)c1 — outcome as called in the assay?
Reply text: no (0)

Inquiry: Please state the recorded outcome for this molecule: Cc1occc1-c1nc2s/c(=C/c3ccc(-c4cc(C(F)(F)F)ccc4Cl)o3)c(=O)n2n1
Reply text: no (0)

Inquiry: How was CCCn1cnc2c(c1=N)C(c1ccc(F)cc1)c1sc3c(CC)cccc3c1O2 (configuration not stated) classified in this test?
Reply text: yes (1)

Inquiry: Fill in: this test's call for O=C(CSc1nc2ccccc2c(=O)n1-c1ccccc1)Nc1cccc(C(=O)/C=C/c2ccccc2)c1 is ___
Reply text: yes (1)

Inquiry: Entry COc1cc(-c2nc(SC(C)C)n(C(C)C)c(=O)c2C#N)ccc1OCc1ccccc1 : call = ?
Reply text: no (0)

Inquiry: # lookup: test call for O=S(=O)(NCCNc1nccc(-n2cnc3ccccc32)n1)c1ccc(C(F)(F)F)cc1
Reply text: no (0)

Inquiry: Which outcome was assigned to CC1(C)NCCC[C@]2(C)[C@H]3C/C(=N\O)C4[C@@H]5C[C@@](C)(CO)CC[C@]5(C)CC[C@@]4(C)[C@]3(C)CC[C@@H]12 (some centres not stated) in this test?
Reply text: no (0)

Inquiry: Outcome? Cc1cc2ncc(-c3cc4ccccc4c(N4CCN(C)CC4)n3)nc2cc1C
Reply text: yes (1)

Inquiry: Recorded test call requested for CC[C@@H](CO)Nc1ccc2ncc(C#Cc3cncc(C(=O)Nc4ccc(CN5CCN(C)CC5)c(C(F)(F)F)c4)c3)n2n1
Reply text: yes (1)

Inquiry: Tell me the assay call for CCOC(=O)c1c(Nc2ccccc2)nn2c(-c3ccc(Cl)cc3)ccnc12 please.
Reply text: no (0)

Inquiry: Name the outcome recorded for COC(=O)C[Se]C(=O)Cc1c(C)n(C(=O)c2ccc(Cl)cc2)c2ccc(OC)cc12 in the assay.
Reply text: no (0)

Inquiry: // outcome(item) with item = C=C1CC[C@@H]2[C@](C)(CO)[C@H](O)CC[C@@]2(C)[C@@H]1C/C(O)=C1\CCOC1=O
Reply text: no (0)

Inquiry: // outcome(item) with item = COc1cccc(C(=O)Nc2cccc(C#Cc3cccc4[nH]nc(N)c34)c2)c1
Reply text: no (0)

Inquiry: What did the test return for Cc1[nH]c(C(=O)Nc2ccccc2OCc2cccc(C(=O)N3CCC[C@@H](N)C3)c2)c(Cl)c1Cl ?
Reply text: yes (1)

Inquiry: Fill in: this test's call for C=C(C)[C@@H]1CC[C@]2(COP(=O)(OCC)OCC)CC[C@]3(C)[C@H](CC[C@@H]4[C@@]5(C)CCCNC(C)(C)[C@@H]5CC[C@]43C)[C@@H]12 is ___
Reply text: yes (1)

Inquiry: // return assay outcome for O=S(=O)(NCCCNc1nccc(-c2[nH]c(-c3ccccc3)nc2-c2ccc(Cl)c(O)c2)n1)c1ccc(Br)cc1
Reply text: no (0)

Inquiry: So what was the verdict on Cc1ccc(NC(=O)CNc2cc(C(N)=O)cc(F)c2C)c(Cl)c1 in this test?
Reply text: no (0)

Inquiry: GET /call?item= O=C(NNc1nc2cc(F)c(F)cc2n2c(CN3CC4CNCC4C3)ccc12)c1ncccn1 (configuration not stated) returns the recorded outcome of this test.
Reply text: no (0)

Inquiry: Please indicate how the test categorized O=C(c1ccc(O)cc1)[C@@H]1CN[C@@]2(C(=O)Nc3ccccc32)[C@H]1c1ccc(F)cc1 .
Reply text: no (0)

Inquiry: Identify the outcome logged in this assay for the molecule shown: Cc1cccc(/C=C/C(=O)Nc2ncc(Cc3cccc(C)c3)s2)c1
Reply text: no (0)

Inquiry: Please let me know the test result on file for C[C@@H](Nc1c(C#N)cnc2ccc(-c3cnc(Cl)c(NS(C)(=O)=O)c3)cc12)c1ccccc1 .
Reply text: yes (1)

Inquiry: Check the results log: what was the call for Cc1noc(C)c1CSc1nc2ccccc2n1-c1ccccc1 ?
Reply text: no (0)

Inquiry: So what was the verdict on COc1ccc(-c2nn(-c3ccc(S(C)(=O)=O)cc3)cc2/C=N/O)cc1 in this test?
Reply text: no (0)

Inquiry: Which outcome was assigned to CNC(=O)c1cc(-c2ccc(NS(=O)(=O)c3ccc(C)cc3)cc2)nc2cccnc12 in this test?
Reply text: no (0)

Inquiry: Please share the test call associated with COc1cc(/C=C2\C(=O)Nc3ccccc32)ccc1OCc1ccc(F)cc1 .
Reply text: no (0)

Inquiry: Please let me know the test result on file for NC(N)=Nc1ccc(Oc2cccc(Nc3ccc(Br)c(C(F)(F)F)c3)c2)cn1 .
Reply text: yes (1)

* * *

For each record, write down the corresponding growth.
- Tested on: SK-OV-3 ovarian
- experiment: NCI-60 one-dose screen, 48 h (100 = growth as untreated, 0 = no growth, -100 = all killed)
- test_context: 10 µM unless noted
Compounds without any hit were thinned out: in the full panel of roughly 83,000, 20% have a hit. Calls of active or inactive are those of the source. The calls were made as follows: active = growth percent below 10; inactive = the rest.

Inquiry: System SK-OV-3 ovarian. Read-out growth. Item O=C(CNc1nc(-c2cccc([N+](=O)[O-])c2)cs1)Nc1cccc([N+](=O)[O-])c1 . Report value.
Reply text: -23.9% (active)

Inquiry: Please report growth with SK-OV-3 ovarian for item O=C(c1ccc(O)c(C(=O)N2Cc3ccc(OCCC[P+](c4ccccc4)(c4ccccc4)c4ccccc4)cc3C2)c1)N1Cc2cccc(F)c2C1 .
Reply text: 114% (inactive)

Inquiry: GET growth where system = SK-OV-3 ovarian and item = Nc1nc(Nc2ccccc2SSc2ccccc2Nc2nc(N)nc(-c3ccc4ccccc4c3)n2)nc(-c2ccc3ccccc3c2)n1
Reply text: 112% (inactive)

Inquiry: // fetch growth for C=CCOc1cccc(/C=C2\SC(=S)N(C3CC(=O)N(c4ccc(Br)cc4)C3=O)C2=O)c1 (stereo not given) ; system: SK-OV-3 ovarian
Reply text: 88% (inactive)

Inquiry: Tell me growth of CC(=O)c1cc(C(=O)N2c3ccccc3Sc3ccccc32)n2ccc3ccccc3c12 when tested on SK-OV-3 ovarian.
Reply text: 48.7% (inactive)

Inquiry: Quote SK-OV-3 ovarian growth for entry COc1ccc(-c2nn(-c3ccc(S(C)(=O)=O)cc3)cc2/C=N/O)cc1 .
Reply text: 108% (inactive)

Inquiry: Please tell me the measured growth for Nn1c(N/N=C/c2nc3ccccc3s2)n[nH]c1=S ; system: SK-OV-3 ovarian.
Reply text: 118% (inactive)

Inquiry: Recall the reported growth of COc1cc(OC)c(S(N)(=O)=O)cc1C(=O)/C=C/c1ccc(C)cc1 on SK-OV-3 ovarian and write it down.
Reply text: 37.6% (inactive)

Inquiry: Enter growth (test system SK-OV-3 ovarian) for O=C(NNc1nc2cc(F)c(F)cc2n2cccc12)c1cnccn1
Reply text: 30.5% (inactive)

Inquiry: GET growth where system = SK-OV-3 ovarian and item = Cc1ccc(-c2nnc(SCc3ccc(O)c4ncccc34)o2)cc1
Reply text: 14.1% (inactive)

Inquiry: Provide growth, system SK-OV-3 ovarian, entry O=C1/C(=C/C=C/c2ccco2)SC(=S)N1c1ccccc1
Reply text: 110% (inactive)

Inquiry: State measured growth of the molecule C[C@@H]1C[C@H]2C(=O)O[C@@H](C)C(NC(=O)[C@H](Cc3cc(F)cc(F)c3)NC(=O)Nc3ccc(C4CC4)cc3F)C(=O)N3CCC[C@H]3C(=O)N3CCCC[C@H]3C(=O)N[C@@H](CO)C(=O)N2C1 (stereo not given in full) with SK-OV-3 ovarian.
Reply text: 21% (inactive)

Inquiry: Param request: growth | system SK-OV-3 ovarian | item Cn1ccnc1C(=O)/C=C/c1ccc(NC(=O)c2c(F)c(F)c(F)c(F)c2F)cc1
Reply text: 129% (inactive)

Inquiry: Please respond with reported growth (system SK-OV-3 ovarian) for Cc1cccc2c3c(sc12)C(c1ccc(F)cc1)C(C#N)=C(/N=C/c1ccc(Cl)cc1)O3 (stereo not given) .
Reply text: 34.8% (inactive)

Inquiry: Give measured growth for CC1(C)CC[C@]2(CN)CC[C@]3(C)C(=CC[C@@H]4[C@@]5(C)CCCNC(C)(C)[C@@H]5CC[C@]43C)[C@H]2C1 (SK-OV-3 ovarian).
Reply text: 106% (inactive)
